Target: Fwt
Assay: ELISA, VHH on coated antibody
METRIC: ELISA OD (OD)

a. VHH clone 8GO9 (VHH) VHH: QVQLVESGGGLVQAGGSLRLSCAASGRTFSRYGMSWFRQAPGKEREFVATISRGGSSTNYADSTKGRFTVSRDNAKNTVVLQMNSLKPEDTAVYYCAADTNWPVGAYEYWGQGTQVTVSS
b. VHH clone 8B03 (VHH) VHH: EVQLVESGGGLVQPGGSLRLSCRASGAIFSINHMGWYRQAPGKQRELVATITSGGSTNYADSVKGRFTISRDNAKNTVYLQMNSLKPEDTAVYSCNLDWTTGWGSRRDYWGQGTQVTVSS
[in] In the pair a and b , the larger recorded ELISA OD belongs to which? Please identify the chosen entry by its label.
[out] a
